Data credit: the supplement of paper PMC12042874

Experiment: amyloid nucleation score (Sup35N fusion, yeast selection) (log enrichment); library NNK3; higher = more nucleation; inactive = no reads after selection;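 further: zero at mode of non-aggregating sequences after 7 days selection at 30°C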

# substance, amyloid nucleation score
records = [
    ("RPKPNRSRTIASQLETKSGW", -0.727),
    ("CRYYNSC", "inactive"),
    ("NDLSDSMRVR", "inactive"),
    ("KLLLYMMYNRYLPM", 0.528),
    ("IRVRLINSGAL", "inactive"),
    ("IRNALIYIVISLKFGRRGCY", 0.107),
    ("YPLFMDYMLTCVHM", "inactive"),
    ("TNRIMNPVYDILWSGMGQPC", "inactive"),
    ("SGGLRLLGKSLLWTAVCTNT", "inactive"),
    ("CGCGWVLWPYKYRSDWLGGK", "inactive"),
    ("LFMMCGHMEYAIVKNRVDKS", 0.016),
    ("CCFSTGCHEKCSSLDDMCVF", "inactive"),
    ("NFITRWCGFSGSA", 0.608),
    ("TVLSIIVFSYLLVCYHLVSV", "inactive"),
    ("MVSNNGFIRSLVENPTPIQD", "inactive"),
    ("GRMWSACLGYMWGCFWREFW", "inactive"),
    ("SRSCVACGLY", "inactive"),
    ("PRNFVANPVELNKGKDFIPS", "inactive"),
    ("LFPSADLATITG", "inactive"),
    ("LEYDRTFKILFCGGSGWHYS", "inactive"),
    ("WAEFLCLSSSFFLDM", "inactive"),
    ("HAFFSADSWGNDIELFIYNG", "inactive"),
    ("IVDNYVVAALLVVLS", "inactive"),
    ("VWCYFVQYHGIISLSFIAFR", "inactive"),
    ("RSIITGVKVDLFNLAVTVFL", 2.62),
    ("CCMSSIIVCYCWMYGTTKLM", 0.927),
]

* * *

Assay: amyloid nucleation score (Sup35N fusion, yeast selection) (log enrichment); library NNK3; higher = more nucleation; inactive = no reads after selection
property: amyloid nucleation score

# substance, property, measured-value
measured = [
    ("RLFLTVHPTDSILENEAV", "amyloid nucleation score", "inactive"),
    ("GIMSCQ", "amyloid nucleation score", 0.021),
    ("VGYMALQETILVIVDDGVTE", "amyloid nucleation score", "inactive"),
    ("SYSNDHAFVSRVAGCNIC", "amyloid nucleation score", 1.53),
    ("PTTCSNFSAYWNVCDPHNIS", "amyloid nucleation score", "inactive"),
    ("INWLWFLMHIIQI", "amyloid nucleation score", "inactive"),
    ("TSAYGMSSWGFWS", "amyloid nucleation score", "inactive"),
    ("YMLHGTRRLRRETYGGAGRR", "amyloid nucleation score", "inactive"),
    ("NVLFLVNY", "amyloid nucleation score", 2.42),
    ("NSMRVKVRTLTVYISEFTVS", "amyloid nucleation score", "inactive"),
    ("WHVEIIVHNMSFSILKNVGR", "amyloid nucleation score", 1.65),
    ("LYFNRRWWPMRWVRDSPRPS", "amyloid nucleation score", 0.024),
    ("FQKQLASRCTSWSWTRWLVQ", "amyloid nucleation score", "inactive"),
    ("LGDYSLTE", "amyloid nucleation score", "inactive"),
    ("FEDCSTLH", "amyloid nucleation score", -0.482),
    ("FPFLSSSSDSSEMFILKLFD", "amyloid nucleation score", "inactive"),
    ("LWDALDKDSESVIDMGQNEG", "amyloid nucleation score", "inactive"),
    ("RNCQRESGTLYNYHVARS", "amyloid nucleation score", "inactive"),
    ("YRFLHSEVEVAHFWLWCSSS", "amyloid nucleation score", "inactive"),
    ("SGPSGSRCGDITLDTPPVLL", "amyloid nucleation score", "inactive"),
    ("YKSPFTGNCLYTVVIKDINL", "amyloid nucleation score", 1.55),
    ("YANWLVLILYG", "amyloid nucleation score", 1.32),
    ("SCKFITFRGGQVQLVNDEGM", "amyloid nucleation score", "inactive"),
    ("LLRRLYLTLACPFYLMHTKC", "amyloid nucleation score", "inactive"),
    ("FIGVCNLVWMELPLDAMRFF", "amyloid nucleation score", 1.36),
    ("DEANRYPRYLYILERLAYRK", "amyloid nucleation score", "inactive"),
]
